The values you see were collected from patent US20220265667A1.

Test system: human nasal tissue mast cells activated with SCF
PROTOCOL_DESCRIPTION: Ex vivo SCF-induced tryptase release (degranulation) of human nasal tissue mast cells
Format: cell-based
PROTOCOL_CONDITIONS: Homo sapiens, Mast cell; 4 hours after SCF addition; read-out: IC50 ex vivo inhibition of tryptase degranulation
Description: Fresh human nasal mucosa was used (middle nasal turbinate), which was surgically removed as standard procedure during nose correction surgeries (septorhinoplasty with conchotomy). […] The tissue was then cut into 12 pieces of equal size, cleansed again in the medium, and the exact fresh weight of the cut tissue pieces was determined for later normalization and then stored overnight in cold medium. […]
ASSAY_READOUT: IC50 (µM)
The answer is to be given in µM; state only the numeric part.

Short answer please: IC50, human nasal tissue mast cells activated with SCF, entry CCNC1=Nc2ccc(Cl)cc2C(C)(c2ccccc2)O1 (racemic) [Etifoxine] 6.12
